Hey, just so you know, these numbers are from ChEMBL document CHEMBL4043200.

Record form. Attribute: inhibition. Fill in for each entry.
measurement_target: cGMP-inhibited 3',5'-cyclic phosphodiesterase 3A (Homo sapiens, UniProt Q14432)
Sequence (Q14432 whole entry): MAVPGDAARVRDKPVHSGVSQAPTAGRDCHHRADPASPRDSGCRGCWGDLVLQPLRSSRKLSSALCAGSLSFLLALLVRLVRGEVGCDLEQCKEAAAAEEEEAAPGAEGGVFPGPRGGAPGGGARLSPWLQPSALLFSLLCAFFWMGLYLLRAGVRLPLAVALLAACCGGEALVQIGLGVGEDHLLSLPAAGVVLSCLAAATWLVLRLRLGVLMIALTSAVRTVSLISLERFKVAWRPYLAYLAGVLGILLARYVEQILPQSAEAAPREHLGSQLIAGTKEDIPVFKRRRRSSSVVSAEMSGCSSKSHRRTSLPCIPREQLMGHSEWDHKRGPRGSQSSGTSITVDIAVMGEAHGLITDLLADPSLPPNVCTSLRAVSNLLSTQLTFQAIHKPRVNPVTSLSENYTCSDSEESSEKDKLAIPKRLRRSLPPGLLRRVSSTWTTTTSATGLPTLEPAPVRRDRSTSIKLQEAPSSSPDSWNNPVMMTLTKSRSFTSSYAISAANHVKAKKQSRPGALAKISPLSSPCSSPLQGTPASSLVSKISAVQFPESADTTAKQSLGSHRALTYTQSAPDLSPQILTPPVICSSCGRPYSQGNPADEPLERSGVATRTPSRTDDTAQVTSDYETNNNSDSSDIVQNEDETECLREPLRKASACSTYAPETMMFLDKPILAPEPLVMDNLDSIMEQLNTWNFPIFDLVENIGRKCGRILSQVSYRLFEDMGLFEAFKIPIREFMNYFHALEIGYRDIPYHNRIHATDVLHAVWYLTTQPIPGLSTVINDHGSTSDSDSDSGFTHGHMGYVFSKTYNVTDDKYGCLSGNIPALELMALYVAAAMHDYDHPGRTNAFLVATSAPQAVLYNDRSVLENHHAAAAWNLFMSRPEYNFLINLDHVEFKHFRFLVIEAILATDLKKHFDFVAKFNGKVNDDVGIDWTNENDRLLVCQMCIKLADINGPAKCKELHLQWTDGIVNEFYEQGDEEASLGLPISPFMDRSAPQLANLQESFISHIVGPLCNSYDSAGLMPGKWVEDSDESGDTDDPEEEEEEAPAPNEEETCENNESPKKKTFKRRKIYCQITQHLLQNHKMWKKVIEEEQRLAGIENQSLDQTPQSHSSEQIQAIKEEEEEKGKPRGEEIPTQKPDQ
protocol_summary: Inhibition of human PDE3A at 10 uM by HTRF assay
One number for each entry, in %.

Illustrative cases are given below, each with its answer.
Request the reported inhibition associated with O=c1nc(N2CCOCC2)oc2c(-c3ccc(CO)cc3)c(OCc3ccccc3)ccc12
18.9

Request the reported inhibition associated with O=c1nc(N2CCOCC2)oc2c(-c3cc4ccccc4s3)c(OCc3ccccc3)ccc12
58.1

Request the reported inhibition associated with O=c1nc(N2CCOCC2)oc2c(-c3cccs3)c(OCc3ccccc3)ccc12
59.9

Continuing:
Request the reported inhibition associated with O=c1nc(N2CCOCC2)oc2c(-c3cc4ccccc4s3)c(OCc3ccncc3)ccc12
51.6

###

Record form. Attribute: inhibition. Fill in for each entry.
measurement_target: Phosphatidylinositol 4,5-bisphosphate 3-kinase catalytic subunit beta isoform (Homo sapiens) (UniProt P42338)
Sequence (P42338 whole entry, looked up, canonical isoform): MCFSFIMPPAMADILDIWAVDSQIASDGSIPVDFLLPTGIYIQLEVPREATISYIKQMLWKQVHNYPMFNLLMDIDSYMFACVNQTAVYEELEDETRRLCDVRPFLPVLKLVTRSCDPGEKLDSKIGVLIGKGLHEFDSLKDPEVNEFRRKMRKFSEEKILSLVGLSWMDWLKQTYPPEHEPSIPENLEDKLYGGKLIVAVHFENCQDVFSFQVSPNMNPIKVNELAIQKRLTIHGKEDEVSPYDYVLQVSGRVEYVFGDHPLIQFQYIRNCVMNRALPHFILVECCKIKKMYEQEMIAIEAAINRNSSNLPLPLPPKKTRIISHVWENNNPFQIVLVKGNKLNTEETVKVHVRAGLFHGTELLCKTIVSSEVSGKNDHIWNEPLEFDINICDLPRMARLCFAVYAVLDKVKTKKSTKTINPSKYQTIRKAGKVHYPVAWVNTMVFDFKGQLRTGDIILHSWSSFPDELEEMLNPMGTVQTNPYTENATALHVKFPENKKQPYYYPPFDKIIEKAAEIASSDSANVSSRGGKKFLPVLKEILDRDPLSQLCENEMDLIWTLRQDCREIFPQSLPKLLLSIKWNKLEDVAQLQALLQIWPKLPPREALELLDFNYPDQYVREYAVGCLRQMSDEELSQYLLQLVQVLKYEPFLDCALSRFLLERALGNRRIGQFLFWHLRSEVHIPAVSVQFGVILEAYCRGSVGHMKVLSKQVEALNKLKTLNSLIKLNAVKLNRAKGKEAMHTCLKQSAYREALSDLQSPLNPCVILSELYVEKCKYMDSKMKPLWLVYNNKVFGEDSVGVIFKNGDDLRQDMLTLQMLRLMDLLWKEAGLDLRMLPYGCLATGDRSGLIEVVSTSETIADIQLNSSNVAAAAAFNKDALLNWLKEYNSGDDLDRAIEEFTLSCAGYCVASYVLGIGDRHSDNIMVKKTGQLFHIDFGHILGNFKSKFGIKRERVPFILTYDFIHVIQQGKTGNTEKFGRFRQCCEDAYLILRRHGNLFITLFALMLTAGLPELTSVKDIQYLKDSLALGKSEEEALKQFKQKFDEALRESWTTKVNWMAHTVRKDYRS
protocol_summary: Inhibition of wild type PI3K-beta (unknown origin) assessed as decrease in ATP consumption at 10 uM using phosphotidylinositol bisphosphate and ATP measured after 60 mins by Kinase-Glo reagent based luminescence assay
Numbers only, in %.

Request the reported inhibition associated with O=c1nc(N2CCOCC2)oc2c(-c3ccc(CO)cc3)c(OCc3ccccc3)ccc12
54.2

Request the reported inhibition associated with O=c1nc(N2CCOCC2)oc2c(-c3ccccc3)c(OCc3ccccn3)ccc12
66.4

Request the reported inhibition associated with COc1ccc(-c2c(OCc3ccncc3)ccc3c(=O)nc(N4CCOCC4)oc23)cc1
53.8

Request the reported inhibition associated with O=c1nc(N2CCOCC2)oc2c(-c3ccccc3)c(OCCBr)ccc12
33.8

Request the reported inhibition associated with O=c1nc(N2CCOCC2)oc2c(-c3ccc(Cl)cc3)c(OCc3ccncc3)ccc12
56.6

Read the next record carefully.
Request the reported inhibition associated with Nc1cccc(-c2c(OCc3ccccc3)ccc3c(=O)nc(N4CCOCC4)oc23)c1
63.1

###

measurement_target: Phosphatidylinositol 4,5-bisphosphate 3-kinase catalytic subunit delta isoform (Homo sapiens)
protocol_summary: Inhibition of wild type PI3K-delta (unknown origin) assessed as decrease in ATP consumption using phosphotidylinositol bisphosphate and ATP measured after 60 mins by Kinase-Glo reagent based luminescence assay
parameter_measured: pIC50
Answers are plain numbers, as −log10 of the molar value.

Illustrative cases are given below, each with its answer.
Request the reported pIC50 associated with COc1ccc(-c2c(OCc3cccnc3)ccc3c(=O)nc(N4CCOCC4)oc23)cc1
5.55

Request the reported pIC50 associated with COc1ccc(-c2c(OCCN3CCN(C)CC3)ccc3c(=O)nc(N4CCOCC4)oc23)cc1
5.25

Request the reported pIC50 associated with O=c1nc(N2CCOCC2)oc2c(-c3ccccc3)c(OCc3cccnc3)ccc12
5.14

Request the reported pIC50 associated with O=c1nc(N2CCOCC2)oc2c(-c3ccc(CO)cc3)c(OCc3ccccc3)ccc12
5.51

Request the reported pIC50 associated with O=c1nc(N2CCOCC2)oc2c(-c3ccccc3)c(OCc3ccccn3)ccc12
5.40

Batch of 5 molecules: report pIC50 for each.
1. COc1ccc(-c2c(OCc3ccccn3)ccc3c(=O)nc(N4CCOCC4)oc23)cc1
2. O=c1nc(N2CCOCC2)oc2c(-c3ccc(Cl)cc3)c(OCc3ccncc3)ccc12
3. COc1ccc(-c2c(OCCBr)ccc3c(=O)nc(N4CCOCC4)oc23)cc1
4. O=c1nc(N2CCOCC2)oc2c(-c3ccc(Cl)cc3)c(OCc3cccnc3)ccc12
5. O=c1nc(N2CCOCC2)oc2c(-c3cc4ccccc4s3)c(OCc3cccnc3)ccc12

[5.57, 5.04, 5.57, 5.00, 5.57]

Batch of 3 molecules: report pIC50 for each.
1. O=c1nc(N2CCOCC2)oc2c(-c3ccccc3)c(OCc3ccncc3)ccc12
2. O=c1nc(N2CCOCC2)oc2c(-c3ccc(Cl)cc3)c(OCc3ccccn3)ccc12
3. COc1ccc(-c2c(OCc3ccncc3)ccc3c(=O)nc(N4CCOCC4)oc23)cc1

[5.24, 4.83, 5.54]

###

measurement_target: Phosphatidylinositol 4,5-bisphosphate 3-kinase catalytic subunit gamma isoform (Homo sapiens) (UniProt P48736)
Sequence (P48736 whole entry, looked up, canonical isoform): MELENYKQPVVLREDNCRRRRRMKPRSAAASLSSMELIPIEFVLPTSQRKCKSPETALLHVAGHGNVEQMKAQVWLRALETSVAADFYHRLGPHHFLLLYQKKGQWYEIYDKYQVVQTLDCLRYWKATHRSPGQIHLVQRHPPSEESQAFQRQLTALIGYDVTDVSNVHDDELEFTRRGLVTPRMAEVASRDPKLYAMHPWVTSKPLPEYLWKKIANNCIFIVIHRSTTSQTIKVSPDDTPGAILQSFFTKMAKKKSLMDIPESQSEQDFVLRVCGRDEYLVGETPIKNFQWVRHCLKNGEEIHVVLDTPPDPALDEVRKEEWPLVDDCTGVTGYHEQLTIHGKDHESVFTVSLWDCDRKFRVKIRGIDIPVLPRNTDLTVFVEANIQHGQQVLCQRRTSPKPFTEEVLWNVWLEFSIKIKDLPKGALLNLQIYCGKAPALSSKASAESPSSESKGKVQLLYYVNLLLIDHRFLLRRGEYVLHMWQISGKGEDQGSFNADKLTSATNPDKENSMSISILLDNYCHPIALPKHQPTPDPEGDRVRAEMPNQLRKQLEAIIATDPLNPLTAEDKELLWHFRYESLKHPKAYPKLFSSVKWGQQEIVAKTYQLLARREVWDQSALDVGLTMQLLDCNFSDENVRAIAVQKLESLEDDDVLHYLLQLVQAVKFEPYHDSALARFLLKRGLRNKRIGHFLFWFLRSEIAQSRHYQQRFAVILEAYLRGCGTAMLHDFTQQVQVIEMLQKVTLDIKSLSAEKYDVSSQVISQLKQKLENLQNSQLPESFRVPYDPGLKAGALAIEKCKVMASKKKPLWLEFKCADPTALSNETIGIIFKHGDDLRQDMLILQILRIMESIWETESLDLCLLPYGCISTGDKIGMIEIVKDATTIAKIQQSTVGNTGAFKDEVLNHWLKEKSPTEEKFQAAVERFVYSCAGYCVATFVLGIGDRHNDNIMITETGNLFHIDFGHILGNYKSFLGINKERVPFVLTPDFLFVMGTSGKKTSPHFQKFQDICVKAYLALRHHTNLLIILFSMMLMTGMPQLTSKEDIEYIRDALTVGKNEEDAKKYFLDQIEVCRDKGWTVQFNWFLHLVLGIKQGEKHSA
protocol_summary: Inhibition of wild type PI3K-gamma (unknown origin) assessed as decrease in ATP consumption at 10 uM using phosphotidylinositol bisphosphate and ATP measured after 60 mins by Kinase-Glo reagent based luminescence assay
parameter_measured: inhibition (%)
Give bare numbers, in %.

Illustrative cases are given below, each with its answer.
Request the reported inhibition associated with O=c1nc(N2CCOCC2)oc2c(-c3ccsc3)c(OCc3ccncc3)ccc12
7.7

Request the reported inhibition associated with O=c1nc(N2CCOCC2)oc2c(-c3ccc(Cl)cc3)c(OCc3ccccn3)ccc12
23.5

Request the reported inhibition associated with O=c1nc(N2CCOCC2)oc2c(-c3cc4ccccc4s3)c(OCc3ccccn3)ccc12
-1

Request the reported inhibition associated with COc1ccc(-c2c(OCCN3CCN(C)CC3)ccc3c(=O)nc(N4CCOCC4)oc23)cc1
6.23

Batch of 4 molecules: report inhibition for each.
1. O=c1nc(N2CCOCC2)oc2c(-c3cc4ccccc4s3)c(OCc3ccccc3)ccc12
2. O=c1nc(N2CCOCC2)oc2c(-c3ccsc3)c(OCc3ccccn3)ccc12
3. Nc1cccc(-c2c(OCc3ccccc3)ccc3c(=O)nc(N4CCOCC4)oc23)c1
4. COc1ccc(-c2c(OCc3ccccn3)ccc3c(=O)nc(N4CCOCC4)oc23)cc1

1: -7.1; 2: 4.4; 3: 19.8; 4: 12.6

###

measurement_target: cGMP-inhibited 3',5'-cyclic phosphodiesterase 3A (Homo sapiens, UniProt Q14432)
protocol_summary: Inhibition of human PDE3A at 10 uM by HTRF assay
parameter_measured: inhibition (%)
One number for each entry, in %.

Illustrative cases are given below, each with its answer.
Request the reported inhibition associated with O=c1nc(N2CCOCC2)oc2c(-c3ccsc3)c(OCc3cccnc3)ccc12
61.9

Request the reported inhibition associated with O=c1nc(N2CCOCC2)oc2c(-c3ccc(Cl)cc3)c(OCc3ccccn3)ccc12
63.3

Request the reported inhibition associated with O=c1nc(N2CCOCC2)oc2c(-c3cccc4c3Sc3ccccc3S4)c(OCc3ccccc3)ccc12
27.3

Request the reported inhibition associated with Nc1cccc(-c2c(OCc3ccccc3)ccc3c(=O)nc(N4CCOCC4)oc23)c1
5.1

Request the reported inhibition associated with O=c1nc(N2CCOCC2)oc2c(-c3cccs3)c(OCc3ccncc3)ccc12
55.3

Request the reported inhibition associated with COc1ccc(-c2c(OCCBr)ccc3c(=O)nc(N4CCOCC4)oc23)cc1
28

Request the reported inhibition associated with O=c1nc(N2CCOCC2)oc2c(-c3cccc4ccccc34)c(OCc3ccccc3)ccc12
51.3

Request the reported inhibition associated with O=c1nc(N2CCOCC2)oc2c(-c3ccccc3)c(OCc3cccnc3)ccc12
50.4

Batch of 2 compounds: report inhibition for each.
1. COc1ccc(-c2c(OCc3ccccn3)ccc3c(=O)nc(N4CCOCC4)oc23)cc1
2. O=c1nc(N2CCOCC2)oc2c(-c3cc4ccccc4s3)c(OCc3ccccn3)ccc12

1. 50.4
2. 77.9

###

measurement_target: Phosphatidylinositol 4,5-bisphosphate 3-kinase catalytic subunit delta isoform (Homo sapiens)
Sequence (whole entry): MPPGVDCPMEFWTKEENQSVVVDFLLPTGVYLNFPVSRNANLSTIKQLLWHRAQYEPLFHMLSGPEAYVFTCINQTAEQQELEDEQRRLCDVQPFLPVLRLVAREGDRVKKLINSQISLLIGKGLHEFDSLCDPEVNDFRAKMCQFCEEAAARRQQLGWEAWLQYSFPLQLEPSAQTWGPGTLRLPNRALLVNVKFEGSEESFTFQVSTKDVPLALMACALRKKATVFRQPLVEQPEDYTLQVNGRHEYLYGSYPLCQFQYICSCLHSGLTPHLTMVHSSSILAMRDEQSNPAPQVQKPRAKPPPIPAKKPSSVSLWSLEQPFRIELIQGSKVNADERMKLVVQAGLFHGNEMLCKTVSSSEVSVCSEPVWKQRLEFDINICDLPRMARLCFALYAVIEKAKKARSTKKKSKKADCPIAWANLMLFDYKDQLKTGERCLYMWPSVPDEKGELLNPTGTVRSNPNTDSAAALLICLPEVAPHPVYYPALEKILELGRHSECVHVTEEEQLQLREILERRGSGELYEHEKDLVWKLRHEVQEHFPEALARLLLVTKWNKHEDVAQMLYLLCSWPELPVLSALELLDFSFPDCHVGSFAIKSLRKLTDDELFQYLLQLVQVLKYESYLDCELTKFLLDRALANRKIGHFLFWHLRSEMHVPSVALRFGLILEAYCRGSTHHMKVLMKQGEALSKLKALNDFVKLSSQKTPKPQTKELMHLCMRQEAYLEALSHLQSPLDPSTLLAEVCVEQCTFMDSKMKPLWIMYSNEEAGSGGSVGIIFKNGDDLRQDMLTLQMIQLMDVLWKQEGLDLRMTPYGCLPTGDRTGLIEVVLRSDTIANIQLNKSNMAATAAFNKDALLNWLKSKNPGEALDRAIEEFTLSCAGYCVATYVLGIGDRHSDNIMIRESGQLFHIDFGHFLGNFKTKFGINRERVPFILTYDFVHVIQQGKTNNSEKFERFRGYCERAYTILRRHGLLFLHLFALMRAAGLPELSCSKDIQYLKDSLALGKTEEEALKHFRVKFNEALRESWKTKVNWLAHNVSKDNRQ
protocol_summary: Inhibition of wild type PI3K-delta (unknown origin) assessed as decrease in ATP consumption at 10 uM using phosphotidylinositol bisphosphate and ATP measured after 60 mins by Kinase-Glo reagent based luminescence assay
Classification by inhibition | ranges: low interval: < 20%; middle interval: ≥ 20% and < 60%; high interval: ≥ 60%

Examples from the recorded data:
Please indicate the class for COc1ccc(-c2c(OCCBr)ccc3c(=O)nc(N4CCOCC4)oc23)cc1 based on its inhibition.
high interval

Please indicate the class for O=c1nc(N2CCOCC2)oc2c(-c3ccccc3)c(OCc3cccnc3)ccc12 based on its inhibition.
high interval

Please indicate the class for O=c1nc(N2CCOCC2)oc2c(-c3ccc(Cl)cc3)c(OCc3ccccn3)ccc12 based on its inhibition.
high interval

Please indicate the class for O=c1nc(N2CCOCC2)oc2c(-c3ccsc3)c(OCc3ccncc3)ccc12 based on its inhibition.
high interval

Now for a further compound.
Please indicate the class for O=c1nc(N2CCOCC2)oc2c(-c3ccsc3)c(OCc3ccccn3)ccc12 based on its inhibition.
low interval
